The measurements presented in this section are drawn from ChEMBL document CHEMBL4033749.

# Test system: Staphylococcus aureus
# test-method-notes: Antibacterial activity Staphylococcus aureus MTCC 96 by agar well method
# Assay type: functional
Calls of active or inactive are those of the source. No cut-off for these calls is given here.
assay-metric: MIC

// below: answered molecules
[[record]]
molecule_smiles = "CCCCCCCCCCCCCCCCCC(=O)Nc1nnc(S[C@@H]2O[C@H](COC(C)=O)[C@H](OC(C)=O)[C@H](OC(C)=O)[C@H]2OC(C)=O)s1"
val = "inactive"

[[record]]
molecule_smiles = "C=CCCCCCCCCC(=O)Nc1nnc(S[C@@H]2O[C@H](CO)[C@H](O)[C@H](O)[C@H]2O)s1"
val = "> 150 µg/mL"

[[record]]
molecule_smiles = "CCCCCCCCCC(=O)Nc1nnc(S[C@@H]2O[C@H](COC(C)=O)[C@H](OC(C)=O)[C@H](OC(C)=O)[C@H]2OC(C)=O)s1"
val = "inactive"

[[record]]
molecule_smiles = "CCCCCCCCCCCCCCCC(=O)Nc1nnc(S[C@@H]2O[C@H](CO)[C@H](O)[C@H](O)[C@H]2O)s1"
val = "> 150 µg/mL"

[[record]]
molecule_smiles = "CCCCCCCCCCCC(=O)Nc1nnc(S[C@@H]2O[C@H](CO)[C@H](O)[C@H](O)[C@H]2O)s1"
val = "> 150 µg/mL"


Look up MIC for the entries below, preserving their order.
1. CCCCCCCCCCCCCCCC(=O)Nc1nnc(S[C@@H]2O[C@H](COC(C)=O)[C@H](OC(C)=O)[C@H](OC(C)=O)[C@H]2OC(C)=O)s1
2. CN[C@@H]1[C@H](O[C@H]2[C@H](O[C@H]3[C@H](O)[C@@H](O)[C@H](N=C(N)N)[C@@H](O)[C@@H]3N=C(N)N)O[C@@H](C)[C@]2(O)C=O)O[C@@H](CO)[C@H](O)[C@H]1O
3. CCCCCC(=O)Nc1nnc(S[C@@H]2O[C@H](COC(C)=O)[C@H](OC(C)=O)[C@H](OC(C)=O)[C@H]2OC(C)=O)s1
4. C=CCCCCCCCCC(=O)Nc1nnc(S[C@@H]2O[C@H](COC(C)=O)[C@H](OC(C)=O)[C@H](OC(C)=O)[C@H]2OC(C)=O)s1
5. CCCCCC(=O)Nc1nnc(S[C@@H]2O[C@H](CO)[C@H](O)[C@H](O)[C@H]2O)s1
6. CC1(C)S[C@@H]2[C@H](NC(=O)Cc3ccccc3)C(=O)N2[C@H]1C(=O)O
7. CCCCCCCC(=O)Nc1nnc(S[C@@H]2O[C@H](COC(C)=O)[C@H](OC(C)=O)[C@H](OC(C)=O)[C@H]2OC(C)=O)s1
8. CCCCCCCCCC(=O)Nc1nnc(S[C@@H]2O[C@H](CO)[C@H](O)[C@H](O)[C@H]2O)s1

Completion:
1: inactive; 2: 6.25 µg/mL; 3: inactive; 4: inactive; 5: > 150 µg/mL; 6: 1.56 µg/mL; 7: inactive; 8: > 150 µg/mL

Prompt: Recorded MIC for CCCCCCCC/C=C\CCCCCCCC(=O)Nc1nnc(S[C@@H]2O[C@H](COC(C)=O)[C@H](OC(C)=O)[C@H](OC(C)=O)[C@H]2OC(C)=O)s1 , please?
Completion: inactive

----------
# System: Staphylococcus aureus
# test-method-notes: Antibacterial activity Staphylococcus aureus MTCC 96 by agar well method
# Assay type: functional
Calls of active or inactive are those of the source. The rule behind the calls is not given here.
assay-metric: MIC

// below: answered compounds
[[record]]
molecule_smiles = "CCCCCCCC/C=C\\CCCCCCCCCCCC(=O)Nc1nnc(S[C@@H]2O[C@H](COC(C)=O)[C@H](OC(C)=O)[C@H](OC(C)=O)[C@H]2OC(C)=O)s1"
val = "inactive"

[[record]]
molecule_smiles = "CCCCCCCCCCCCCC(=O)Nc1nnc(S[C@@H]2O[C@H](CO)[C@H](O)[C@H](O)[C@H]2O)s1"
val = "> 150 µg/mL"

[[record]]
molecule_smiles = "CCCCCCCC/C=C\\CCCCCCCC(=O)Nc1nnc(S[C@@H]2O[C@H](CO)[C@H](O)[C@H](O)[C@H]2O)s1"
val = "> 150 µg/mL"

[[record]]
molecule_smiles = "CCCCCCCCCCCCCC(=O)Nc1nnc(S[C@@H]2O[C@H](COC(C)=O)[C@H](OC(C)=O)[C@H](OC(C)=O)[C@H]2OC(C)=O)s1"
val = "inactive"

[[record]]
molecule_smiles = "CCCCCCCCCCCC(=O)Nc1nnc(S[C@@H]2O[C@H](COC(C)=O)[C@H](OC(C)=O)[C@H](OC(C)=O)[C@H]2OC(C)=O)s1"
val = "inactive"

[[record]]
molecule_smiles = "CCCCCCCC/C=C\\CCCCCCCCCCCC(=O)Nc1nnc(S[C@@H]2O[C@H](CO)[C@H](O)[C@H](O)[C@H]2O)s1"
val = "> 150 µg/mL"


Look up MIC for the entries below, preserving their order.
1. CCCCCCCC(=O)Nc1nnc(S[C@@H]2O[C@H](CO)[C@H](O)[C@H](O)[C@H]2O)s1
2. CCCCCCCCCCCCCCCCCC(=O)Nc1nnc(S[C@@H]2O[C@H](CO)[C@H](O)[C@H](O)[C@H]2O)s1

Completion:
["> 150 µg/mL", "> 150 µg/mL"]
